# credit: patent US20250154131A1

Below: a set of entries, each annotated with reported IC50.
Biological target: SARS-COV-2 3CL Protease (Severe acute respiratory syndrome coronavirus 2 (2019-nCoV) (SARS-CoV-2))
Assay: biochemical
Format: biochemical
Conditions: recombinant MBP-tagged 3CL protease, 30 min preincubation; class symbol column
assayEndpoint: IC50

CN(C)C1CCC(C(NC(=O)C(F)(F)F)C(=O)N2C[C@H]3[C@@H]([C@H]2C(=O)N[C@H](C#N)C[C@@H]2CCNC2=O)C3(C)C)CC1 (stereo partly drawn); 0.1 to 1 µM
CC1(C)[C@@H]2[C@@H](C(=O)N[C@H](C#N)C[C@@H]3CCNC3=O)N(C(=O)[C@@H](NC(=O)C(F)(F)F)C34C[C@@H]5C[C@@H](CC(O)(C5)C3)C4)C[C@@H]21; < 0.1 µM
CC(C)(C)[C@H](NC(=O)C(F)(F)F)C(=O)N1C[C@H]2[C@@H]([C@H]1C(=O)N[C@H](C#N)CC1C(=O)Nc3ncccc31)C2(C)C (stereo partly drawn); < 0.1 µM
